The following sequences are shown together with reported PBM binding z-score values.
- Tested on: PPARg:RXRa (NR concentration 180 nM, RXRa partner concentration 90 nM)
- protocol: PBM binding z-score (relative to random genomic background probes); higher = stronger binding; sequences stand for … in GC…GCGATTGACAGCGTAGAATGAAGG

Examples with answers:
residue_codes: GCTTACGGGTCAAAGGTTATATCATGAATAGAAT
PBM binding z-score: 11.4
//
residue_codes: CCTACTGGGCCAAAAAGGTGATTGATGCCGATAA
PBM binding z-score: 0.56
//
residue_codes: TCTAGCACGCCAGAGGGTCACTCAAGAGGTACGG
PBM binding z-score: 0.836
//
residue_codes: TCTTGTAGATCACGCAGGTTAAGAAAGCCTGAGT
PBM binding z-score: -0.0924
//
residue_codes: ACTAGCAGGCCAAGTATGGGTCACTCAAACAAAG
PBM binding z-score: 0.661
//
residue_codes: ATCTCTAGGTAACAGTTCAGTGAATCCCGAGGAT
PBM binding z-score: 3.39
//
residue_codes: AATACAGGGTCATCGTAGGCCAGAGTACGCACAG
PBM binding z-score: 6.55
//
residue_codes: ACAGACAGGTGATGAACGTAACTCAGGCTATCAT
PBM binding z-score: 0.922
//
residue_codes: ATCTCTAGGTAAGACTCAGTTGAGTGAAGAACGC
PBM binding z-score: 0.0512
//
residue_codes: GCTTACGGGTCAAAGGTTATAGGATGAATAGAAT
PBM binding z-score: 11.4

Notebook: pull reported PBM binding z-score for PPARg:RXRa (NR concentration 180 nM, RXRa partner concentration 90 nM), entry ACTATCAGTTGAGACGAGGGCAACCGATAGGTTG
0.645

* * *

- Test system: PPARg:RXRa 30nM:10nM, anti-RXR (NR concentration 30 nM, RXRa partner concentration 10 nM)
- protocol: PBM binding z-score (relative to random genomic background probes); higher = stronger binding; sequences stand for … in GC…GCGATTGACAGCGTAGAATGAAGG
measured_endpoint: PBM binding z-score
Reply briefly: the number, and no unit.

So what does the record say about PBM binding z-score for TCATATAGTTAAATGCTAGGTGAAAGTCCGATCT ?
3.69

Data request, read-out PBM binding z-score, for ATCTCTAGGTAAAGTTCAGGGAAAGATCGATAGA
2.77

Given the entry ATCTCTAGGTACAGATAGTTCAGTGAATGCAAAT , report its measured PBM binding z-score.
0.29

Name the reported PBM binding z-score value associated with the sequence ATATGTAGGTTCTCGGGTCATTCAGTTTGCGCAT
1.14

Item under review: CCTATCAGGCCAGGGTCACTCAAGCATTTCGCTT . Reported PBM binding z-score?
-0.162

# lookup: PBM binding z-score of TCTCGGAGGAGACGAAAGGTCAGAGCTCGACATC
3.66

Which PBM binding z-score value belongs to ATCGAAAGGTCGAGGTTAGTATAGAGAAAGGGAA ?
1.65

Form field: reported PBM binding z-score of CCAGACAGGTGAGAAGGTAACGCAGCCTCGATTA
-0.268

I would be grateful if you could share the reported PBM binding z-score for GGAACGAGGGCAAAGTTTATAGCATCTGTCGACG .
7

For the sequence shown here, CGGACTAGGTCAGAACAGGACAGTGAAGGATGAT , give the reported PBM binding z-score.
1.01

Find the recorded PBM binding z-score belonging to TCTAGCAGGCCAGAGGGTCACTAAAGAGGTACGG and report it.
1.97

For the sequence CCTAGCAGGCAAGGGTCACTCAAGCATTTCGCTT , what PBM binding z-score is on record?
0.737
